- assay.overview: Absorption characteristics: transmission spectrum of near-infrared absorbing layer of NIR filter (UV-visible spectrophotometer)
- Assay type: physicochemical
- measurement.parameters: transparent resin polycarbonate SP3810, nd(B) 1.63, film thickness 1.0 μm
outcome.measure: 430 nm to 600 nm Average transmittance (%)

QUERY: Bench note: what 430 nm to 600 nm Average transmittance did CCCCC(CC)C(=O)Nc1cc2c(cc1C1=C([O-])C(=c3cc4c(cc3NC(=O)C(CC)CCCC)=[N+](C(C)C)C(C)C4(C)C)C1=O)C(C)(C)C(C)N2C(C)C (centres unmarked) [Example A11-7] show?
RESULT: 95.8

QUERY: Bench note: what 430 nm to 600 nm Average transmittance did CCCC(C)(C)C(=O)Nc1cc2c(cc1C1=C([O-])C(=c3cc4c(cc3NC(=O)C(C)(C)CCC)=[N+](C)C(C)C4(C)C)C1=O)C(C)(C)C(C)N2C (centres unmarked) [Example A11-14] show?
RESULT: 97.1

QUERY: Bench note: what 430 nm to 600 nm Average transmittance did CCCCCCCC(=O)Nc1cc2c(cc1C1=C([O-])C(=c3cc4c(cc3NC(=O)CCCCCCC)=[N+](C)C(C)C4(C)C)C1=O)C(C)(C)C(C)N2C (centres unmarked) [Example A11-24, reference compound] show?
RESULT: 95.2

QUERY: Bench note: what 430 nm to 600 nm Average transmittance did CC(=O)Nc1cc2c(cc1C1=C([O-])C(=c3cc4c(cc3NC(C)=O)=[N+](C)C(C)C4(C)C)C1=O)C(C)(C)C(C)N2C (centres unmarked) [Example A11-20, reference compound] show?
RESULT: 93.6

QUERY: Bench note: what 430 nm to 600 nm Average transmittance did CCCC(CCC)C(=O)Nc1cc2c(cc1C1=C([O-])C(=c3cc4c(cc3NC(=O)C(CCC)CCC)=[N+](C)C(C)C4(C)C)C1=O)C(C)(C)C(C)N2C (centres unmarked) [Example A11-1] show?
RESULT: 97.3

* * *

- assay.overview: Solubility of dye to organic solvent
- Assay type: physicochemical
- measurement.parameters: methyl isobutyl ketone, 50° C.; mass % of the dye to the mass of the entire solution
outcome.measure: Solubility to organic solvent: MIBK

Here is how some compounds turned out for Solubility to organic solvent: MIBK.
QUERY: Bench note: what Solubility to organic solvent: MIBK did CCCC(=O)Nc1cc2c(cc1C1=C([O-])C(=c3cc4c(cc3NC(=O)CCC)=[N+](C)C(C)C4(C)C)C1=O)C(C)(C)C(C)N2C (stereo not drawn) [Example A11-21, reference compound] show?
RESULT: <1.0% mass %

QUERY: Bench note: what Solubility to organic solvent: MIBK did CC(C)C(=O)Nc1cc2c(cc1C1=C([O-])C(=c3cc4c(cc3NC(=O)C(C)C)=[N+](C)C(C)C4(C)C)C1=O)C(C)(C)C(C)N2C (stereo not drawn) [Example A11-26, reference compound] show?
RESULT: <1.0% mass %

QUERY: Bench note: what Solubility to organic solvent: MIBK did CC(CCC(C(=O)Nc1cc2c(cc1C1=C([O-])C(=c3cc4c(cc3NC(=O)C(CCC(C)CC(C)(C)C)C(C)CC(C)(C)C)=[N+](C)C(C)C4(C)C)C1=O)C(C)(C)C(C)N2C)C(C)CC(C)(C)C)CC(C)(C)C (stereo not drawn) show?
RESULT: 10%< mass %

QUERY: Bench note: what Solubility to organic solvent: MIBK did CCCCC(CC)C(=O)Nc1cc2c(cc1C1=C([O-])C(=c3cc4c(cc3NC(=O)C(CC)CCCC)=[N+](CCC)C(C)C4(C)C)C1=O)C(C)(C)C(C)N2CCC (stereo not drawn) show?
RESULT: 10%< mass %

QUERY: Bench note: what Solubility to organic solvent: MIBK did CCCCC(CC)C(=O)Nc1cc2c(cc1C1=C([O-])C(=c3cc4c(cc3NC(=O)C(CC)CCCC)=[N+](CC)C(C)C4(C)C)C1=O)C(C)(C)C(C)N2CC (stereo not drawn) show?
RESULT: 10%< mass %

Continue with the compound presented below.
QUERY: Bench note: what Solubility to organic solvent: MIBK did CCCCCCCC(=O)Nc1cc2c(cc1C1=C([O-])C(=c3cc4c(cc3NC(=O)CCCCCCC)=[N+](C)C(C)C4(C)C)C1=O)C(C)(C)C(C)N2C (stereo not drawn) [Example A11-24, reference compound] show?
RESULT: 1.00% mass %
